- System: K4 kissing-loop RNA reporter
- measurement notes: apparent KD of K4 kissing-loop reporter; higher = weaker reporter binding
- test settings: Eterna round: R107; input ligand: arginine 13.2 mM
measurement type: apparent KD of K4 kissing-loop reporter (nM)
Give the value, in units of nM, as a plain number.

Example entries begin here.
GGUCCACGCCAUGCCAGUGAUGUUGGUAAGCGAGGACCGGUACGGCCGCCACUCGUUCAAUACCGUAUCGCCCAUAACCUGGAGA [Oneseror] | 89.1
GCGCGUCAUGUCAGCGGAGACACUGUCGAUACCAGCGCCGCAAGGCGCCCUUGGCAGCGACGCGCUGGAGUGAUGUUCCAGCGUG [#2 Exclusion - Theophylline A Attempt #15 (HarryS)] | 154
GUUACGCAUGGAAGGAGCGCAGGCUCAACAAAUAGCUCAGUGAUGUUGAGCAUAUUAAUUCUGCAGGUAGGUCGCCAUGUGUAAC [Ex Arginine B K4 25] | 491
CGCCACAACUGAAGGAGCGCGCCAGUGAUGUUGGACGGCUUCGUCAAGGAAACUGCACCGGUGCAGGUAGGUCGCAGUGCGUGGU [Eranarve] | 164

Problem: May I ask what apparent KD of K4 kissing-loop reporter has been recorded for GGCUCCUACGCAGGAUAUAGUAGCCGAGAGUGAUGUUCUACGGCGUUUGCCGAUUUAGUCACAGAUCUAGAAGGGUGUAGGAGCC [XFMN-B PiClone] ?
Solution: 660

Problem: Moving on to AAGCAGUCACUCGAAUCCAUCGAAGAUGGGCGAGGACCGGUACGGCCGCCACUCGGAGUGAUGUUCCAAAGACUGCAAAAUAAAA
Solution: 378

Problem: Moving on to UUUGGAAGCGGUGUUGAUUAGGGAGCGGAAGGAGCGCCGAGGAGGGCAGGUAGGUCGCCGGAAUGUAGUGAUGUUGCAUAGAGGU [ExArgA.Aa]
Solution: 265

Problem: Moving on to CGCGGCCGGCCGGAUACCAGUGACCCGCUGGAAACCGCGGGCCCAGAGUGAUGUUCGGGACACCCUUGGCAGCCGCCUGGGCGUG [#2 Same State - Theophylline B Attempt #2 (HarryS)]
Solution: 309

Problem: Moving on to AAUACCUGAGUGAUGUUCAGGGAAUCAGAAGGAGCGUCAAUUAUGACAGGUAGGUCGCUGAAUACAUGUGUGUAUACACAUGUAC [Arg A SS t4]
Solution: 189

Problem: Moving on to UGACUGGACUGAAGGAGCGCUUAACUCCUAGUGAUGUUAGGAAAACGAGACAAAGUCUCGAAGCAGGUAGGUCGCAGUCUAGUCU
Solution: 123

Problem: Moving on to AAAGAGUCCUGAGCCGAAGAAGAAGGCGGACGAGGACCGGUACGGCCGCCACUCGAAAGGAGUGCGGCUGAGUGAUGUUUGGCCG [Tryptophan A (C-G optomized)]
Solution: 181

Problem: Moving on to AAGUGAUGUUGUAGUGAUGUUGUGAUGUUGCAGGAUAUAUAGUGAUGUAGAAGGGUAUGUGCAGUGUUCUUAUUUGAGUGUUGAU [zffdmullin]
Solution: 33.9

---

- Test system: K4 kissing-loop RNA reporter
- measurement notes: apparent KD of K4 kissing-loop reporter; higher = weaker reporter binding
- test settings: Eterna round: R107; input ligand: FMN 200 uM
The following sequences are shown together with reported apparent KD of K4 kissing-loop reporter values.
Please append the unit to your numeric answer.

Example entries begin here.
CAUGAGUGAUGUUCGUGCGCUUGGUCGAAGCGAGGACCGGUACGGCCGCCACUCGCUAUGGCGGCAUCUACCAGUGAUGUUGGUG [Same State Tryptophan A GF 2] | 241 nM
GGGAGUAGUGCGGCCGCCACUGUGAAAGAAGAAGAAUAUAGUGAUGUUAUAUAGGAAAGGAAGAAUAGGACCGGGCAUUAGAUUU [SSTRyptB.K] | 213 nM
CCAUUCUUUUACGAUACCAGUUUAAUAUAUUUAUUCAAAACCCUUGCCGAGUGAUGUUCGGACCCUUGGCAGCGUUUGCGAGAGG [ttedstkmullin] | 455 nM

Problem: Hi! What's the reported apparent KD of K4 kissing-loop reporter for GUUACGCAUGGAAGGAGCGCAGGCUCAACAAAUAGCUCAGUGAUGUUGAGCAUAUUAAUUCUGCAGGUAGGUCGCCAUGUGUAAC [Ex Arginine B K4 25] on K4 kissing-loop RNA reporter?
Solution: 531 nM

Problem: Moving on to UCCUACGAGGUAACGUGGAUAUCUCGUUGCAAGGAUAUCUGGAAACAGAGAAGGUGCAACAUUAUCGGCAGUGAUGUUGCUGACC
Solution: 711 nM

Problem: Moving on to UAUUAAUUGUCAGGAUAUCGUAUUCGAGUGAUGUUCGUAUAUCGACGAUAGUCGAUUCUAUCUAUACGAGAAGGGACAUUAUUUA [JR_SSFMNB_Sub007]
Solution: 801 nM

---

- System: MS2 coat protein
- measurement notes: apparent KD of MS2 coat protein; designed switch direction (-1 OFF switch, 1 ON switch): -1; higher = weaker reporter binding
- test settings: input ligand: FMN 200 uM
measurement type: apparent KD of MS2 coat protein
Please append the unit to your numeric answer.

ACUGGAUGCAAGCAGGUCCACAUGAGGAUCACCCAUGUUCGUCGGCCAGCAUCGGCUUCUACCGCAAGCCGCGUGCA [Eternabot (L1) Solution 27] (Eterna round: R97, puzzle: Sensor, turn-off variant 1) | 15.9 nM
AUAGAUAUAGGAUAUGAGGUAUAGUACAUGAGGAUCACCCAUGUUGAUCGCAUGAACGAUUUAGAAGGAUACCUAA [Eternabot (L2) Solution 83] (Eterna round: R97, puzzle: Exclusion 5) | 643 nM
CGGUGUAGAGGAUAUACGUGGAUGUAAGUUCAUGAUAUUUUACAUGAGGAUCACCCAUGUAGAAGGCUAUAGCG [JR_Ex2_Sub079] (Eterna round: R97, puzzle: Exclusion 2) | 36.2 nM
ACAAAGCGAGGAUAUACACAGGUGUCCUGGGCGUCAAAUCGACAUGAGGAUCACCCAUGUAGAAGGCGCAAUAG [Diedated] (Eterna round: R97, puzzle: Exclusion 2) | 44.9 nM
AACUGGACAGGAUAUGUACUUGAGCACUUGAGGAUCACCCAAGUCAUCAAGUACUCAGGCACAGAAGGGUUUAUUU [jl-ex5.4.69 ViennaUCT mod] (Eterna round: R97, puzzle: Exclusion 5) | 311 nM

Problem: May I ask what apparent KD of MS2 coat protein has been recorded for GUUAUUUAUGUAGGAUAUGCAAGGCGAACCUAAGCAGAAGGACAUGAGGAUCACCCAUGUAUUGCGGUCUGCGUUCAGAUCGCU [salish99_ExNG1_r4_013] (Eterna round: R96, puzzle: Exclusion NG 1) ?
Solution: 86.2 nM

Problem: Moving on to UGUUGUUACGCAGGAUAUGUAUGAGGAUCACCCAUAAGAGUAUAUUUACCAUGAGGAUCACCCAUGUAGAAGGGCGGGUUAACA [pwkr exNG2 2xF5 1xFMN.10] (Eterna round: R96, puzzle: Exclusion NG 2)
Solution: 224 nM

Problem: Moving on to CAGCCCUGAGGAUAUCCCUACUUGCACAUGAGGAUCACCCAUGUCCUCCUCCGGGCUUCGGGAGAAGGCAGGUCUC [Megrez-7.5] (Eterna round: R97, puzzle: Exclusion 5)
Solution: 23.8 nM

Problem: Moving on to UACCUGAGGCAAAGCUUUAGGUAUACAUGAGGAUCACCCAUGUAGGAUAUGGUAGGCUUUGCUUACCAGAAGGACAUGUUAAUU [Mat - Exclusion NG 3 - Mod of JL - D32] (Eterna round: R96, puzzle: Exclusion NG 3)
Solution: 161 nM

---

- Test system: K4 kissing-loop RNA reporter;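 note: bound reporter read as fluorescence of individual clusters on recovered sequencing chips by microscopy, with normalized cluster intensities fitted with a binding model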
- measurement notes: apparent KD of K4 kissing-loop reporter; higher = weaker reporter binding
- test settings: Eterna round: R107; input ligand: none
The following sequences are shown together with reported apparent KD of K4 kissing-loop reporter values.
Give the value, in units of µM, as a plain number.

Example entries begin here.
GAUAUAUAUAGAGGAUAUAGCAGGUGAUACAAGAAAGUGAGUGAUGUUUAUGUAGAUGAUGAUAUGUUAGAAGGCUAUAUAUAUC [radioactive7-modED1598] | 0.766
GGGAGGAGUGGUGUUGAUUAAGAAGCGGAAGGAGCGCCGAAGAAGGCAGGUAGGUCGCCGGAAUAUAGUGAUGUUAUAUAGAGGG [ExArg.E] | 0.23

Problem: Hi! What's the reported apparent KD of K4 kissing-loop reporter for GGAUAGGAUAGAGGAUAUGGUAUAUGCAAGAAUAACUUGUCAUGUAAAUCCAUGAGGAGUGAUGUUCCAGAAGGCUGUCCUAUCG [MatMod 10 - Jieux - Exclusion - FMN B] on K4 kissing-loop RNA reporter?
Solution: 0.48

Problem: Moving on to GGAGGGAUCUCGGCCGCCACUCAUAAGAAAUGGGCCUCAGAAAUAUAGUGAUGUUAUGUAAAGAAGAGGACCGGGAGAAAGAAGG [ExTryptoB.Da]
Solution: 0.324

Problem: Moving on to AAGUGAUGUUGUAGUGAUGUUGUGAUGUUGCAGGAUAUAUAGUGAUGUAGAAGGGUAAGUACUGAUGUUGUUAGUGAGUGAUGUU [wwzrrmullin]
Solution: 0.0879

Problem: Moving on to AAGCAGUCUCUUGUAACCAUCGAAGAUGGACGAGGACCGGUACGGCCGCCACUCGGAGUGAUGUUCCGAAGACUGCAAAAUAAAA [MatMod 15 - Jieux - Exclusion - Tryptophan A]
Solution: 0.828

Problem: Moving on to AAGAGGUAGGCGGCCGCCACUUGUUGUGAACACAUACGAGCCAGUGAUGUUGGUAUUGUGGGCGGAAGGACCGGGCCUACCUGAA [Exclusion - Tryptophan B (Freestyle 20)]
Solution: 0.32

Problem: Moving on to UGACUGGACUGAAGGAGCGAGCGAGACAAAGUCUCGAAAAUUCAGUGAUGUUGAUAUAUAACUCAGGUAGGUCGCAGUCUAGUCU [ArgBS 5 #SwitchBubble #StaticStem]
Solution: 0.477

Problem: Moving on to UGGAGUUGACGAAAAGUCAACUCCUGGGAAGGAGCGGACGAAAGUCCAGGUAGGUCGCCCACUACCAGUGAUGUUGGUACCUAAA
Solution: 0.257

Problem: Moving on to AAAGUAUACUGAAGGAGCGAGUAGUGGAAACAUAAACUCAUUGCGAGUGAUGUUCGCAGUACUCAGGUAGGUCGCGGUAAUCGUA [Exclusion Arginine B Gf 12]
Solution: 0.934

Problem: Moving on to UGAUACCAGACGGCCGCCACUGCGCCAGUCAAUGACUGAGCGCGGUGGCGCUCAGUGAUGUUGUGCAGGACCGGGUCUGGUAUCU [Mod of Eli's TrypBX 8 v6]
Solution: 0.41

Problem: Moving on to CCUGCAGCUGUUACCGAGGGAUGCUACGGACGAGGACCGGUACGGCCGCCACUCGCCAGUGAUGUUGGUGAGGGAGGACGUUCCU [Georte]
Solution: 0.15

Ref: the supplement of paper PMC9170038
